Values compiled from patent US5080904A.

# Assay Procedure: Phase transition temperature of the lipid
# Type: physicochemical
Endpoint Name: phase transition temperature (found value) of phospholipid (°C)

| Molecule | Reading |
| --- | --- |
| CCCCCCCCCCCCCCCC(=O)OC[C@H](COP(=O)([O-])OCC[N+](C)(C)C)OC(=O)CCCCCCCCCCCCCCC | 41.4 |
| CCCCCCCCCCCCCCCCCC(=O)OCC(COP(=O)([O-])OCC[N+](C)(C)C)OC(=O)CCCCCCCCCCCCCCCCC (stereo not drawn) | 54.9 |
| CCCCCCCCCCCCCCCC(=O)OCC(COP(=O)(O)OCC(O)CO)OC(=O)CCCCCCCCCCCCCCC (stereo not drawn) | 41 |

* * *

# Assay Procedure: Phase transition temperature of the lipid
# Assay type: physicochemical
Cut-off 50 °C on phase transition temperature (found value) of phospholipid, inclusive. At or above means Y; below means N.

| Compound | Category |
| --- | --- |
| CCCCCCCCCCCCCCCCCC(=O)OC[C@H](COP(=O)([O-])OCC[N+](C)(C)C)OC(=O)CCCCCCCCCCCCCCC | N |
| CCCCCCCCCCCCCCCC(=O)OCC(COP(=O)(O)OCCN)OC(=O)CCCCCCCCCCCCCCC (stereo not drawn) | Y |
| CCCCCCCCCCCCCCCCCC(=O)OCC(COP(=O)(O)OCC(O)CO)OC(=O)CCCCCCCCCCCCCCCCC (stereo not drawn) | Y |
| CCCCCCCCCCCCCCCC(=O)OC[C@H](COP(=O)([O-])OCC[N+](C)(C)C)OC(=O)CCCCCCCCCCCCC | N |
| CCCCCCCCCCCCCC(=O)OC[C@H](COP(=O)([O-])OCC[N+](C)(C)C)OC(=O)CCCCCCCCCCCCC | N |
| CCCCCCCCCCCCCCCCCC(=O)O[C@H](COC(=O)CCCCCCCCCCCCCCC)COP(=O)([O-])OCC[N+](C)(C)C | N |
| CCCCCCCCCCCCCC(=O)OCC(COP(=O)(O)OCC(O)CO)OC(=O)CCCCCCCCCCCCC (stereo not drawn) | N |
| CCCCCCCCCCCCCC(=O)OCC(COP(=O)(O)OCC(N)C(=O)O)OC(=O)CCCCCCCCCCCCC (stereo not drawn) | N |

* * *

Reported phase transition temperature (found value) of phospholipid values for the following molecules.
# Assay Procedure: Phase transition temperature of the lipid
# Assay type: physicochemical
Endpoint Name: phase transition temperature (found value) of phospholipid (°C)

| Molecule | Reading |
| --- | --- |
| CCCCCCCCCCCCCC(=O)OCC(COP(=O)(O)OCCN)OC(=O)CCCCCCCCCCCCC (stereo not shown) [DMPE, dimyristoylphosphatidylethanolamine] | 50 |
| CCCCCCCCCCCCCCCC(=O)OCC(COP(=O)(O)OCC(N)C(=O)O)OC(=O)CCCCCCCCCCCCCCC (stereo not shown) [DPPS, dipalmitoylphosphatidylserine] | 51 |
